# growth per entry
- Test system: SR leukemia
- assay.summary: NCI-60 one-dose screen, 48 h (100 = growth as untreated, 0 = no growth, -100 = all killed)
- assay.setup: 10 µM unless noted
About 83,000 compounds went through this panel and 20% of them were active in at least one assay; those are over-represented in the sample as a whole. Activity calls are given as the source filed them. Rule for the calls: active = growth percent below 10; inactive = the rest.

Use the examples below as a reference point.
{"columns": ["molecule", "growth"],
 "data": [
  ["CCCS(=O)(=O)N1CCCC(C(=O)Nc2nc3ccc(NC(=O)c4ccc(F)c(OC)c4F)cc3s2)C1 (stereo not drawn)", "16.2% (inactive)"],
  ["CC(C)CSc1nc(NCCc2c[nH]c3ccccc23)c(C#N)c(-c2ccc(F)cc2)n1", "3.42% (active)"],
  ["C=CC(=O)Nc1ccc(C)c(Oc2ccc(Cl)cc2)c1", "24.3% (inactive)"],
  ["Brc1ccc(N/N=C/c2c[nH]c3ccc(Br)cc23)nc1", "-26.2% (active)"],
  ["CC(=O)OC[C@@]1(C)C2CC[C@]3(C)C(CC=C4C5CC(C)(C)CC[C@]5(C(=O)Nc5ccc(F)cc5)CC[C@]43C)[C@@]2(C)C[C@@H](OC(C)=O)[C@@H]1OC(C)=O (stereo partly drawn)", "27.8% (inactive)"],
  ["CC1(c2cc3cc(Cl)ccc3oc2=O)NC(=O)c2c(/C=C/C(=O)OC3CC4CCC3(C)C4(C)C)cccc2N1 (stereo not drawn)", "42.2% (inactive)"],
  ["COc1cc2oc(-c3cccc(C(=O)Nc4ccc(Cl)cc4)c3)cc(=O)c2c(OCCNC(=O)[C@H](CO)NC(=O)OC(C)(C)C)c1OC", "2.89% (active)"]
]}

Please examine the following record next.
Result for `N#Cc1c(-c2cccc(Cl)c2Cl)cc(-c2ccc3ccccc3c2)[nH]c1=O` , tested on SR leukemia, growth: 67.4% (inactive)

###

- System: SF-268 CNS
- assay.summary: NCI-60 one-dose screen, 48 h (100 = growth as untreated, 0 = no growth, -100 = all killed)
- assay.setup: 10 µM unless noted
This is part of a sample that, as a whole, favours compounds with a hit. Of some 83,000 tested, about 20% had one in any assay. Activity calls are given as the source filed them. The calls were made as follows: active = growth percent below 10; inactive = the rest.
Reported growth values for a set of compounds

{"columns": ["compound", "system.tested", "growth"],
 "data": [
  ["O=C(NNc1nc2cc(F)ccc2n2c(CN3CC4CNCC4C3)ccc12)c1ccncn1 (centres undefined)", "SF-268 CNS", "28.3% (inactive)"],
  ["COc1ccc2c(c1)c(-c1cc3nc(-c4cn(C)c5ncc(Br)cc45)cc(N)n3n1)cn2C", "SF-268 CNS", "12.4% (inactive)"],
  ["O=C(c1ccc(OCCN2CCOCC2)cc1)C1[C@H](c2ccc(Cl)cc2)[C@@H](c2ccccc2)NC12C(=O)Nc1ccc(Cl)cc12 (some centres undefined)", "SF-268 CNS", "43.8% (inactive)"],
  ["C/C(=N\\N=C\\c1cc([N+](=O)[O-])ccc1Cl)c1ccc2c(c1)Nc1ccccc1S2", "SF-268 CNS", "80.4% (inactive)"],
  ["O=C(COc1ccc(NC(=O)Nc2ccccc2)cc1)N=Nc1c(O)[nH]c2ccc([N+](=O)[O-])cc12", "SF-268 CNS", "46.7% (inactive)"],
  ["Cc1ccc(NC(=O)CN2CCN(c3ncnc4c3cnn4-c3ccccc3)CC2)cc1", "SF-268 CNS", "80.7% (inactive)"]
]}

Per the records, this compound ( CC1=C(C(=O)OCc2ccccc2)C(c2ccc(-n3cncn3)cc2)n2c(nc3ccccc32)N1 (centres undefined) ) has growth equal to 71.5% (inactive)

// field: growth; key: `c1ccc(-c2csc(Nc3cccc(Nc4nc(-c5ccccc5)cs4)c3)n2)cc1` ; value = 40.6% (inactive)

The reported value for CC1(C)CC[C@]2(C(=O)Nc3ccc(Br)cc3)CC[C@]3(C)C(=CCC4[C@@]5(C)C[C@@H](O)[C@H](O)[C@@](C)(CO)C5CC[C@]43C)C2C1 (some centres undefined) in terms of growth is 43.8% (inactive)

###

- System: RPMI-8226 leukemia
- assay.summary: NCI-60 one-dose screen, 48 h (100 = growth as untreated, 0 = no growth, -100 = all killed)
- assay.setup: 10 µM unless noted
About 83,000 compounds went through this panel and 20% of them were active in at least one assay; those are over-represented in the sample as a whole. Active and inactive are the calls of the source. The calls were made as follows: active = growth percent below 10; inactive = the rest.
Below: a set of entries, each annotated with reported growth.

These recorded examples may help you get a feel for the data.
{"columns": ["compound", "result"],
 "data": [
  ["CCCCc1c(Nn2cnnn2)no[n+]1[O-]", "45.8% (inactive)"],
  ["CN(C)CCCNC(=O)c1cc(NC(=O)c2cc(NC(=O)c3ccc(/C=C/c4ccccc4)cc3)cn2C)cn1C", "-0.0203% (active)"]
]}

response.value for `O=C(O)c1ccc(-c2ccc(/C=N/NC(=O)c3[nH]c4ccc(Br)cc4c3-c3ccccc3)s2)cc1` (field: growth) = 12.1% (inactive)

###

Known growth of a selection of compounds
- Tested on: HOP-92 NSCLC
- assay.summary: NCI-60 one-dose screen, 48 h (100 = growth as untreated, 0 = no growth, -100 = all killed)
- assay.setup: 10 µM unless noted
This is part of a sample that, as a whole, favours compounds with a hit. Of some 83,000 tested, about 20% had one in any assay.
Respond with the bare value in %.

// solved cases for growth follow
{"columns": ["compound", "growth (%)"],
 "data": [
  ["COc1ccc(N2N=C(c3ccc4c(c3)OCO4)CC2c2cccc(NC(=O)CCCNS(=O)(=O)c3ccc(F)cc3)c2)cc1 (stereo not given)", 90.4],
  ["CC1=C(C(=O)OCc2ccccc2)C(c2c(O)cc(O)cc2O)n2c(nc3ccccc32)N1 (stereo not given)", 83.1],
  ["CCN(CC)C(=O)N/C(N)=N/c1nc2ccccc2s1", 72.2],
  ["COc1cc2c(c(OC)c1OC)C(=O)CC(c1cccc(NC(=O)c3cc(N)ccc3Cl)c1)O2 (stereo not given)", 69.5],
  ["S=C(NCCc1ccccc1)Nc1ccc(OCc2nc3ccccc3[nH]2)cc1", 100]
]}

growth measured on `CCCSc1nc(NCCc2c[nH]c3ccccc23)c(C#N)c(-c2ccccc2)n1` = 78.9

Entry under test: `COc1ccc([C@H](C)Nc2nc(Cl)nc3ccccc23)cc1` . Its growth was 46.1

# growth of `CCC(C)(C)c1ccc(OCCCCCCN2CCN(c3ccncc3)CC2)cc1` = -27.8

# growth (compound: CC1=C(C(=O)c2ccccc2)C(c2cccc(Cl)c2Cl)n2c(nc3ccccc32)N1 (stereo not given) ) is 18

GET /value?item= `O=S(=O)(Nc1cccc(-n2cnc3cc(-c4ccc(O)cc4)ccc32)c1)C1CC1` &field=growth returns 87.9

###

- Test system: HOP-92 NSCLC
- assay.summary: NCI-60 one-dose screen, 48 h
- assay.setup: 10 µM unless noted
This is part of a sample that, as a whole, favours compounds with a hit. Of some 83,000 tested, about 20% had one in any assay. Active and inactive are the calls of the source. Rule for the calls: active = growth percent below 10; inactive = the rest.
Pick one: active, inactive

How was `Cc1ccc2c(N)c(C(=O)Nc3ccc(OC(F)(F)F)cc3)sc2n1` classified in this test?
inactive

So what was the verdict on `Cn1cc(-c2nnc(N)nc2-c2c[nH]c3ccccc23)c2cccnc21` in this test?
inactive

Please share the test call associated with `COc1cc(OC)cc(C(=O)Nc2cccc(-c3cn(-c4ccc(S(N)(=O)=O)cc4)nn3)c2)c1` .
inactive

Hi, do you know how C#CCOc1cc(N(CC)CC)ccc1C(C(=O)NC(C)(C)C)N(C(=O)C1CCc2cc(F)ccc2O1)c1ccccc1F (centres undefined) came out in this test?
inactive

Name the outcome recorded for `C/C(=N\N=C1/C(=O)Nc2ccc(Cl)cc21)c1ccc2c(c1)Nc1ccccc1S2` in the assay.
active

Which outcome did this test record for the molecule C=C1CC[C@@H]2[C@]3(C)COC(c4ccco4)O[C@@H]3CC[C@@]2(C)[C@@H]1C/C=C1/C(=O)OCC1OC(C)=O (some centres undefined) ?
inactive

Test call, this molecule: `CN(C)c1ccnc(CNCCSC2(c3ccc(C(F)(F)F)cc3)c3ccccc3CCc3ccccc32)c1`
active

Could you kindly confirm the outcome this assay logged for `O=C(N/N=C/c1ccc(-c2ccc(O)cc2)s1)c1[nH]c2ccc(Br)cc2c1-c1ccccc1` ?
active

###

- Tested on: OVCAR-3 ovarian
- assay.summary: NCI-60 one-dose screen, 48 h (100 = growth as untreated, 0 = no growth, -100 = all killed)
- assay.setup: 10 µM unless noted
The panel holds about 83,000 compounds, 20% with a hit somewhere; the sample as a whole holds those more often.
property: growth (%)
Answer in %, number only, no unit symbol.

Per the records, this compound ( `Cc1cccc(Nc2nc3ccccc3nc2/C=C/c2ccc(F)cc2)c1` ) has growth equal to 108

Measured growth of `CCCCSc1nc(NCCc2c[nH]c3ccccc23)c(C#N)c(-c2ccc(OC)cc2)n1` : 83.6

Field growth (entry `Cc1cccc(-c2nc(Nc3ccc(C)c(S(N)(=O)=O)c3)c3ccccc3n2)c1` ) reads 39.3

Just so you know, measured growth for O=C(/C=C/c1ccc(O)c(O)c1)NC1CCOC1O (centres undefined) came out at 103

The reported value for `COc1cc(/C=C2\C(=N)N=C(SCc3nc4ccccc4[nH]3)NC2=O)ccc1O` in terms of growth is 103
